growth by entry:
# Tested on: LOX IMVI melanoma
# test.name: NCI-60 one-dose screen, 48 h (100 = growth as untreated, 0 = no growth, -100 = all killed)
# measurement.context: 10 µM unless noted
About 83,000 compounds went through this panel and 20% of them were active in at least one assay; those are over-represented in the sample as a whole.
property: growth (%)

{"compound": "CCOC(=O)c1c2c(n3ccc(NC(=O)CCN(CC)CC)cc13)C(=O)c1ncccc1C2=O", "reading": 10.3}
{"compound": "NC(CC(=O)O)C(=O)OCc1ccccc1 (stereo not given)", "reading": 107}
{"compound": "COc1ccc(OCC(=O)Nc2ccc(-c3nc4ccccc4s3)cc2C)cc1", "reading": 89}
{"compound": "Nc1c(C(=O)Nc2ccccc2)sc2nc3c(cc12)CN(CCc1ccccc1)CC3", "reading": 87.5}
{"compound": "Clc1cccc(Nc2nc(Nc3cnc4ccccc4c3)c3[nH]cnc3n2)c1", "reading": 77.4}
{"compound": "O=C(/C=C/c1cc2ccccc2[nH]c1=O)/C=C/c1cc2ccccc2[nH]c1=O", "reading": -65.4}
{"compound": "COc1ccccc1/C=C(/C(=O)c1ccccc1)c1ccccc1", "reading": 87.8}
{"compound": "CNC(=O)c1cc(Oc2ccc3nc(NC(=O)Nc4ccc(N5CCC(N(C)C)CC5)cc4)sc3c2)ccn1", "reading": 69.9}
{"compound": "Cc1cc(Nc2nc(-c3cccnc3)nc3ccccc23)n[nH]1", "reading": 20.1}
{"compound": "CN(C)C(=O)c1cc2cnc(Nc3ccc(-c4csc5c(=O)cc(N6CCNCC6)oc45)cc3)nc2n1C1CCCC1", "reading": -62.9}
{"compound": "COc1cc2cc(COc3nccc(-c4ccc(Cl)cc4)n3)c(=O)[nH]c2cc1OC", "reading": 54.7}
{"compound": "C=C1CC[C@@H]2[C@](C)(COC(C)=O)[C@H](OC(C)=O)CC[C@@]2(C)[C@@H]1CC(Nc1ccc(S(=O)(=O)Nc2nc(C)cc(C)n2)cc1)C1=CCOC1=O (stereo not given in full)", "reading": -60.6}
{"compound": "Cc1nn(-c2ccccc2)c2nc(C)n(-c3ccc(Br)cc3)c(=O)c12", "reading": 45.6}
{"compound": "CCc1ccccc1NC(=O)c1sc2nc3c(cc2c1N)C(=O)CCC3", "reading": 42.6}
{"compound": "CCN(CC)CC(O)c1cc(-c2ccc(Cl)cc2)nc2c(C)c(Cl)ccc12 (stereo not given)", "reading": -94.7}
{"compound": "CCCCCC(=O)Oc1ccc(/C(=C(\\C)c2ccccc2)c2ccc(OCCN(CC)CC)cc2)cc1", "reading": 68.8}
{"compound": "CCOC(=O)N1CCN(c2nc(Nc3cc(C)[nH]n3)c3ccccc3n2)CC1", "reading": 24}
{"compound": "Cc1ccc2c(NCCCN(C)C)c3c(C)nn(C)c3nc2c1", "reading": 15.5}
{"compound": "c1c2c(cc3c1OCO3)Cc1cc3c(cc1Cc1cc4c(cc1C2)OCO4)OCO3", "reading": 95.8}
{"compound": "COc1ccc(C2c3ccc4ccccc4c3Oc3ncnc(N)c32)cc1 (stereo not given)", "reading": 76.5}

Every entry's value here was drawn from PubChem BioAssay (NCI).
